# experiment: chemical genetic growth profiling, strain panel (AID 1159580);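 further: tested at 20 µM; growth read once vehicle control cultures reached saturation at 30 °C; 1 = growth at the plate median or of vehicle wells; lower values mean less growth of the strain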
# recordedConditions: S. cerevisiae deletion strains, growth OD, locus YKR091W, strain srl3, hits give low values
The whole screen tested about 5,500 compounds, of which about 2,000 (36%) were called active. Not shown: some 18% with an inconclusive outcome. Some of the results follow.
measurementKind: normalized growth

[
  {
    "compound": "O=c1c(O)c(-c2ccc(O)c(O)c2)oc2cc(O)cc(O)c12",
    "measurementKind": "normalized growth",
    "dataValue": 0.979
  },
  {
    "compound": "Cc1ccccc1OCC(O)CO (centres undefined)",
    "measurementKind": "normalized growth",
    "dataValue": 0.984
  },
  {
    "compound": "CCCCCCCCCCCC1=C(O)C(=O)C=C(O)C1=O",
    "measurementKind": "normalized growth",
    "dataValue": 0.911
  },
  {
    "compound": "CCCCCC(=O)Cc1cc(O)cc(O)c1C(=O)Oc1cc(CC(=O)CCCCC)c(C(=O)O)c(OC)c1",
    "measurementKind": "normalized growth",
    "dataValue": 0.922
  },
  {
    "compound": "CCCCCc1c2c(cc(O)c1C(=O)O)OC(=O)c1c(cc(OC)cc1C(=O)CCCC)O2",
    "measurementKind": "normalized growth",
    "dataValue": 0.997
  },
  {
    "compound": "O=c1c(O)c(-c2ccc(O)cc2O)oc2cc(O)cc(O)c12",
    "measurementKind": "normalized growth",
    "dataValue": 0.996
  },
  {
    "compound": "CC(=O)Oc1ccc2c(c1OC(C)=O)OCC1(O)Cc3c(cc(OC(C)=O)c(OC(C)=O)c3OC(C)=O)C21 (centres undefined)",
    "measurementKind": "normalized growth",
    "dataValue": 1.01
  },
  {
    "compound": "COc1ccc(-c2oc3cc(O[C@H]4O[C@H](CO)[C@@H](O)[C@H](O)[C@H]4O)c(OC)c(O)c3c(=O)c2OC)cc1O",
    "measurementKind": "normalized growth",
    "dataValue": 1
  },
  {
    "compound": "O=c1c(O)c(-c2ccc(O)c(O)c2)oc2c(O[C@@H]3O[C@H](CO)[C@H](O)[C@@H](O)[C@H]3O)c(O)cc(O)c12",
    "measurementKind": "normalized growth",
    "dataValue": 1.02
  }
]

* * *

# experiment: chemical genetic growth profiling, strain panel (AID 1159580);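 further: tested at 20 µM; growth read once vehicle control cultures reached saturation at 30 °C; 1 = growth at the plate median or of vehicle wells; lower values mean less growth of the strain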
# recordedConditions: S. cerevisiae deletion strains, growth OD, locus YIL073C, strain SPO22
The campaign covered roughly 5,500 compounds. About 2,000 (36%) were called active. About 18% were inconclusive and are not listed. No stated cut-off is given here; in the data, active means normalized growth mostly below about 0.91 (no sharp cut-off); inconclusive means no clear call, values can overlap the other calls; inactive means mostly above about 0.92. The list shows a part of the results.
Outcomes: 1.0 (active), 0.0 (inactive)

[
  {
    "compound": "CCC/C=C1\\OC(=O)C2=C1CCC=C2",
    "cat": 0.0
  },
  {
    "compound": "C=C[C@H]1CN2CC[C@H]1C[C@@H]2[C@@H](OC(=O)OCC)c1ccnc2ccc(OC)cc12",
    "cat": 0.0
  },
  {
    "compound": "OCC(O)C(O)C(O)C(O)C(O)CO (stereo unspecified)",
    "cat": 0.0
  },
  {
    "compound": "CC(=O)O[C@@H]1CC(=O)[C@@]2(C)C(CC(=O)[C@]3(C)C2CC[C@@]2(C)[C@H](c4ccoc4)OC(=O)C4OC423)C1(C)C (stereo partly specified)",
    "cat": 0.0
  },
  {
    "compound": "CN(C)c1nc(N)c(C(=O)N=C(N)N)nc1Cl",
    "cat": 0.0
  },
  {
    "compound": "NC(=O)NCCCC(N)C(=O)O (stereo unspecified)",
    "cat": 0.0
  },
  {
    "compound": "CC(C)C1COc2cc3oc(=O)ccc3cc2O1 (stereo unspecified)",
    "cat": 1.0
  },
  {
    "compound": "O=C(O)C1=C[C@@H](O)[C@@H](O)[C@H](O)C1",
    "cat": 0.0
  },
  {
    "compound": "CCC(c1ccc(O)cc1)C(CC)c1ccc(O)cc1 (stereo unspecified)",
    "cat": 0.0
  },
  {
    "compound": "CC1(C)C2CC(=O)[C@]3(C)C(CC[C@@]4(C)[C@H](c5ccoc5)OC(=O)C5OC543)[C@@]2(C)[C@@H](O)C[C@H]1O (stereo partly specified)",
    "cat": 0.0
  },
  {
    "compound": "CC1(C)C(=O)C=C[C@@]2(C)C1C=C[C@]1(C)C2CC[C@@]2(C)[C@H](c3ccoc3)OC(=O)C3OC321 (stereo partly specified)",
    "cat": 0.0
  },
  {
    "compound": "NC(N)=NC(=O)c1nc(Cl)c(N)nc1N",
    "cat": 0.0
  },
  {
    "compound": "CCN(Cc1ccncc1)C(=O)C(CO)c1ccccc1 (stereo unspecified)",
    "cat": 0.0
  },
  {
    "compound": "O=C1C=C2C(=CCOC2O)O1 (stereo unspecified)",
    "cat": 1.0
  },
  {
    "compound": "CN1C[C@H](C(=O)N[C@]2(C)O[C@@]3(O)[C@@H]4CCCN4C(=O)[C@H](Cc4ccccc4)N3C2=O)C[C@@H]2c3cccc4[nH]cc(c34)C[C@H]21",
    "cat": 0.0
  },
  {
    "compound": "NC(CSCSCC(N)C(=O)O)C(=O)O (stereo unspecified)",
    "cat": 0.0
  },
  {
    "compound": "CC(=O)O[C@@H]1CC2C(C)(C)C(=O)C=C[C@]2(C)C2CC[C@@]3(C)[C@H](c4ccoc4)OC(=O)[C@H]4O[C@]43[C@@]21C (stereo partly specified)",
    "cat": 0.0
  },
  {
    "compound": "CCC(N)C(O)c1ccc(O)c(O)c1 (stereo unspecified)",
    "cat": 0.0
  },
  {
    "compound": "COC(=O)C1OC(=O)C2OC23C1(C)CCC1C2(C)C(OC(C)=O)CC(OC(C)=O)C(C)(C)C2CC(=O)C13C (stereo unspecified)",
    "cat": 0.0
  },
  {
    "compound": "COc1cccc2c(C)cc(=O)[nH]c12",
    "cat": 0.0
  },
  {
    "compound": "CC/C(=C(/CC)c1ccc(O)cc1)c1ccc(O)cc1",
    "cat": 0.0
  }
]
